test system: pT212Tau in Dyrk1a- and MAPT-overexpressing HEK293T cells; assay: Tau phosphorylation at Threonine 212 (pT212Tau) sandwich ELISA in double transfected cells; conditions: Homo sapiens, HEK-293T, read-out: Thr212 EC50 (μM)
Assay metric: EC50

See these solved cases before continuing.
CN1CCN(c2cc(C(=O)Nc3cc4cc(-c5cncc(C(F)F)c5)ccc4cn3)ccn2)CC1 : 1.6 µM
CN1CCN(c2cc(C(=O)Nc3cc4cc(-c5cnc6ocnc6c5)ccc4cn3)ccn2)CC1 : 6.2 µM
CN1CCCC(C(=O)Nc2cc3cc(-c4cnccn4)ccc3cn2)CC1 (centres unmarked) : 1.4 µM

Batch: EC50 for all items listed.
1. CC(C)(O)CN1CCCC(C(=O)Nc2cc3cc(-c4cnccn4)ccc3cn2)CC1 (centres unmarked)
2. O=C(Nc1cc2cc(-c3cncc(NC4CCNCC4)n3)ccc2cn1)C1CCCCC1

1. 0.192 µM
2. < 0.003 µM

* * *

molecular target: recombinant DYRK1A kinase (Homo sapiens (Human), UniProt Q13627); experiment: DYRK1A kinase assay (Ser/Thr 18 peptide Z-lyte, FRET); settings: DYRK1A kinase; head says EC50, method says IC50; ATP 30 μM
Assay metric: log10 of EC50 (log10 of the value in nM)
Annotation: log10 of EC50, nM basis.

See these solved cases before continuing.
CN1CCN(c2cc(C(=O)Nc3cc4cc(-c5cnccn5)ccc4cn3)ccn2)CC1 : 1.98
CC(C)N1CCC(Nc2cncc(-c3ccc4cnc(NC(=O)C5CCCC5)cc4c3)n2)CC1 : 0.00

Batch: log10 of EC50 for all items listed.
1. CC(C)N1CCC(c2nc(C(=O)Nc3cc4cc(-c5cccnc5)ccc4cn3)co2)CC1
2. CC(C)CN1CCCC(C(=O)Nc2cc3cc(-c4cnccn4)ccc3cn2)CC1 (stereo not shown)

1: 2.01; 2: 1.46

* * *

Could you please report measured log10(EC50) for the items listed next?
tested on: Tau phosphorylation at Ser396 (pSer396) in SH-SY5Y cells; experiment: Tau phosphorylation at Ser396 (pSer396) cell assay, ELISA/western blot; type: cell-based, human; settings: Homo sapiens; SH-SY5Y cells, overnight (16-18 h); read-out: pSer396 Tau EC50
Annotation: log10 of EC50, nM basis.

See these solved cases before continuing.
Cc1nccn1CC(=O)Nc1cc2cc(-c3cccnc3)ccc2cn1 : 3.20
Cc1cncc(-c2ccc3cnc(NC(=O)CN4CCOCC4)cc3c2)c1 : 3.89
O=C(CCN1CCOCC1)Nc1cc2cc(-c3cncc(F)c3)ccc2cn1 : 3.93
COc1cncc(-c2ccc3cnc(NC(=O)C4CCN(C)CC4)cc3c2)c1 : 3.16
O=C(Nc1cc2cc(-c3cncc(CN4CCCC4)c3)ccc2cn1)C1CC1 : 3.28
CC(C)Nc1cncc(-c2ccc3cnc(NC(=O)C4CCN(C)CC4)cc3c2)n1 : 2.11
O=C(Nc1cc2cc(-c3cnccn3)ccc2cn1)[C@H]1CC[C@H](CN2CC(F)C2)CC1 : 3.89
O=C(Nc1cc2cc(-c3cccnc3)ccc2cn1)C1CC1 : 2.90
CN1CCN(Cc2cncc(-c3ccc4cnc(NC(=O)C5CC5)cc4c3)c2)CC1 : 3.69
CN1CCCN(CC(=O)Nc2cc3cc(-c4cccnc4)ccc3cn2)CC1 : 3.36

Batch: log10(EC50) for all items listed.
1. O=C(CN1CCOCC1)Nc1cc2cc(-c3ccnnc3)ccc2cn1
2. O=C(Nc1cc2cc(-c3cncc(OCC4CNC4)n3)ccc2cn1)c1ccc(F)cc1

3.04
2.91

Batch: log10(EC50) for all items listed.
1. CN1CCC(C(=O)Nc2cc3cc(-c4cncc(F)c4)ccc3cn2)CC1
2. CN1CCC(C(=O)Nc2cc3cc(-c4cccnc4)ccc3cn2)CC1
3. O=C(Cn1ccnc1)Nc1cc2cc(-c3cccnc3)ccc2cn1

[3.97, 2.90, 3.04]

* * *

target: recombinant DYRK1A kinase (Homo sapiens (Human)); assay: DYRK1A kinase assay (Ser/Thr 18 peptide Z-lyte, FRET); details: DYRK1A kinase; head says EC50, method says IC50; ATP 30 μM
Assay metric: EC50 (nM)
One number for each entry, in nM.

See these solved cases before continuing.
CC(C)Nc1cncc(-c2ccc3cnc(NC(=O)C4CCN(C)CC4)cc3c2)n1 [Compound 88] : 1
O=C(Nc1cc2cc(-c3cncc(NCC4(F)CNC4)n3)ccc2cn1)c1ccc(F)cc1 [Compound 104] : 1

Batch: EC50 for all items listed.
1. CN1CCC(c2cccc(C(=O)Nc3cc4cc(-c5cncc(C(F)F)c5)ccc4cn3)c2)CC1 [Compound 27]
2. CN1CCN(c2cc(C(=O)Nc3cc4cc(-c5cncc(NC(C)(C)C)n5)ccc4cn3)ccn2)CC1 [Compound 100]

1: 29; 2: 4

Batch: EC50 for all items listed.
1. COc1cncc(-c2ccc3cnc(NC(=O)CN4CCOCC4)cc3c2)c1 [Compound 147]
2. O=C(CN1CCOCC1)Nc1cc2cc(-c3cnccn3)ccc2cn1 [Compound 79]
3. O=C(Nc1cc2cc(-c3cncc(NC4CCNCC4)n3)ccc2cn1)C1CCCC1 [Compound 107]
4. O=C(Nc1cc2cc(-c3cncc(F)c3)ccc2cn1)c1coc(C2CCNCC2)n1 [Compound 141]
5. O=C(Cn1ccnc1)Nc1cc2cc(-c3cccnc3)ccc2cn1 [Compound 15]
6. CN1CCN(CC(=O)Nc2cc3cc(-c4cccnc4)c(F)cc3cn2)CC1 [Compound 145]

1: 20; 2: 79; 3: 1; 4: 306; 5: 5; 6: 13

I would be grateful if you could share the reported EC50 for O=C(Nc1cc2cc(-c3cnccn3)ccc2cn1)C1CCN(CCF)CC1 [Compound 77] .
11

* * *

Could you please report measured EC50 for the items listed next?
target: recombinant DYRK1A kinase (Homo sapiens (Human), UniProt Q13627); experiment: DYRK1A kinase assay (Ser/Thr 18 peptide Z-lyte, FRET)
Give bare numbers, in nM.

CN1CCN(c2cc(C(=O)Nc3cc4cc(-c5ccccn5)ccc4cn3)ccn2)CC1 : 242
CN1CCN(c2cc(C(=O)Nc3cc4cc(-c5cncc(N)c5)ccc4cn3)ccn2)CC1 : 2
CN1CCC(C(=O)Nc2cc3cc(-c4cnc(N)nc4)ccc3cn2)CC1 : 48

Batch: EC50 for all items listed.
1. O=C(Nc1cc2cc(-c3cnccn3)ccc2cn1)[C@H]1C[C@H](N2CCOCC2)C1
2. O=C(CN1CCOCC1)Nc1cc2cc(-c3cncc(F)c3)ccc2cn1
3. CNc1ccc(-c2ccc3cnc(NC(=O)c4ccnc(N5CCN(C)CC5)c4)cc3c2)cn1
4. CN1CCN(c2cc(C(=O)Nc3cc4cc(-c5cncc(N(C)C)c5)ccc4cn3)ccn2)CC1
5. O=C(Nc1cc2cc(-c3cncc(CN4CCC(O)CC4)c3)ccc2cn1)C1CC1
6. O=C(Nc1cc2cc(-c3cnccn3)ccc2cn1)[C@H]1CC[C@H](N2CCOCC2)CC1

20
70
64
40
2
11

Batch: EC50 for all items listed.
1. CN1CCN(c2cc(C(=O)Nc3cc4cc(-c5cccnc5)ccc4cn3)ccn2)CC1
2. O=C(Nc1cc2cc(-c3cncc(CN4CCC(O)CC4)c3)ccc2cn1)c1ccc(F)cc1

1: 3; 2: 3

* * *

system: pT212Tau in Dyrk1a- and MAPT-overexpressing HEK293T cells; assay: Tau phosphorylation at Threonine 212 (pT212Tau) sandwich ELISA in double transfected cells; conditions: Homo sapiens, HEK-293T, read-out: Thr212 EC50 (μM)
Could you please report measured EC50 for the items listed next?

See these solved cases before continuing.
CC(C)Nc1cncc(-c2ccc3cnc(NC(=O)C4CCN(C)CC4)cc3c2)n1 : < 0.003 µM
CN1CCC(C(=O)Nc2cc3cc(-c4cnccn4)ccc3cn2)CC1 : 0.089 µM
O=C(Nc1cc2cc(-c3cnccn3)ccc2cn1)[C@H]1C[C@H](N2CCOCC2)C1 : 0.227 µM
CN1CCN(C[C@H]2CC[C@H](C(=O)Nc3cc4cc(-c5cncc(F)c5)ccc4cn3)CC2)CC1 : 0.004 µM
COc1cncc(-c2ccc3cnc(NC(=O)CN4CCOCC4)cc3c2)c1 : 0.147 µM

Batch: EC50 for all items listed.
1. CN1CCN(CC(=O)Nc2cc3cc(-c4ccc(F)nc4)ccc3cn2)CC1
2. O=C(CN1CCOCC1)Nc1cc2cc(-c3ccnnc3)ccc2cn1
3. CN1CCN(CC(=O)Nc2cc3cc(-c4cccnc4)ccc3cn2)CC1
4. [2H]c1nc([2H])c(-c2ccc3cnc(NC(=O)CN4CCOCC4)cc3c2)c([2H])c1[2H]

1. 1.5 µM
2. 0.206 µM
3. 2.5 µM
4. 0.086 µM

Batch: EC50 for all items listed.
1. O=C(CN1CCCC1)Nc1cc2cc(-c3cccnc3)ccc2cn1
2. CN1CCN(Cc2cncc(-c3ccc4cnc(NC(=O)C5CC5)cc4c3)c2)CC1

1. 0.225 µM
2. 0.045 µM

Notebook: pull reported EC50 for pT212Tau in Dyrk1a- and MAPT-overexpressing HEK293T cells, entry "O=C(Nc1cc2cc(-c3cccnc3)ccc2cn1)C1CC1"
0.01 µM
